protocol: Pharmacokinetic determination, rat IV/PO study
Format: in vivo
test parameters: male, Sprague-Dawley, plasma, IV (5 mg/kg)
measured parameter: AUC(0-t)

CCn1cc(-c2ccnc(Nc3cccc(S(N)(=O)=O)c3)n2)c2cccnc21
543 ng·h/mL

* * *

Test system: SK-MEL-28-luc
protocol: 72 h MTT cytotoxicity assay SK-MEL-28-luc
Format: cell-based
test parameters: Homo sapiens
pIC50: −log10 of the molar value.
Listed here: items and their measured pIC50.
measured parameter: pIC50

CCCn1cc(-c2ccnc(Nc3ccc(S(N)(=O)=O)cc3)n2)c2nc(Cl)cc(C)c21
5.47
CCCn1cc(-c2ccnc(Nc3cccc(S(N)(=O)=O)c3)n2)c2ccnc(Cl)c21
6.59
CCn1cc(-c2ccnc(Nc3cccc(C#N)c3)n2)c2cccnc21
5.11
CCCn1cc(-c2ccnc(Nc3cccc(S(N)(=O)=O)c3)n2)c2ccncc21
8.00
CCCn1cc(-c2ccnc(Nc3ccc(S(N)(=O)=O)cc3)n2)c2ccncc21
8.42
CCCn1cc(-c2ccnc(Nc3ccc(C)c(S(=O)(=O)N4CCOCC4)c3)n2)c2ccncc21
6.00
Cn1cc(-c2ccnc(Nc3ccc(O)cc3)n2)c2ccccc21
5.20
CCn1cc(-c2ccnc(Nc3cccc(S(N)(=O)=O)c3)n2)c2cccnc21
5.07
CCn1cc(-c2ccnc(Nc3cccc(S(N)(=O)=O)c3)n2)c2ccnc(Cl)c21
6.31
CCCn1cc(-c2ccnc(Nc3ccc(O)cc3)n2)c2cccnc21
5.03
CCCn1cc(-c2ccnc(Nc3cccc(S(N)(=O)=O)c3)n2)c2nc(Cl)cc(C)c21
5.02
CCCn1cc(-c2ccnc(Nc3ccc(C)c(S(=O)(=O)N4CCOCC4)c3)n2)c2cccnc21
5.52
CCCn1cc(-c2ccnc(Nc3cccc(O)c3)n2)c2cccnc21
5.07
Cn1cc(-c2ccnc(Nc3cccc(O)c3)n2)c2ccccc21
5.19
CCCn1cc(-c2ccnc(Nc3cccc(S(N)(=O)=O)c3)n2)c2cccnc21
5.57
CCCn1cc(-c2ccnc(Nc3cccc([N+](=O)[O-])c3)n2)c2cccnc21
5.26

* * *

tested system: UniProt:Q96GD4
Sequence (Q96GD4 whole entry): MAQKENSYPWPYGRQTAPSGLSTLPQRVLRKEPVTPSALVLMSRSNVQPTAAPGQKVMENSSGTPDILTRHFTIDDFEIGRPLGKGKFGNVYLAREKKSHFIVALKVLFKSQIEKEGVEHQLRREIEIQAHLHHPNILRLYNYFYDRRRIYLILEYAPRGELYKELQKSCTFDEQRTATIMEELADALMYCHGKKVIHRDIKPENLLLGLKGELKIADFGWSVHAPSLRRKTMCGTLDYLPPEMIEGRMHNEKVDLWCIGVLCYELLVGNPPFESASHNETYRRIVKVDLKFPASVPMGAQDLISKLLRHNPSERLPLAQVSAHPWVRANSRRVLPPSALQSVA
protocol: Kinase assay Aurora B (Table I)
Type: biochemical
test parameters: read-out: Kinase inhibition, IC50 Aurora B
measured parameter: log10(IC50) (log10 of the value in nM)

CCCn1cc(-c2ccnc(Nc3ccc(O)cc3)n2)c2cccnc21
2.83
CCCn1cc(-c2ccnc(Nc3cccc(S(N)(=O)=O)c3)n2)c2nc(Cl)cc(C)c21
2.28
CCn1cc(-c2ccnc(Nc3ccc(O)cc3)n2)c2ccccc21
2.67
Cn1cc(-c2ccnc(Nc3ccc(O)cc3)n2)c2ccccc21
2.30
CCn1cc(-c2ccnc(Nc3ccc(O)cc3)n2)c2cccnc21
2.88
CCn1cc(-c2ccnc(Nc3cccc(O)c3)n2)c2ccccc21
3.00
CCCn1cc(-c2ccnc(Nc3ccc(S(N)(=O)=O)cc3)n2)c2cccnc21
3.76
Cn1cc(-c2ccnc(Nc3cccc(O)c3)n2)c2ccccc21
2.53
CCn1cc(-c2ccnc(Nc3cccc(C(N)=O)c3)n2)c2cccnc21
3.16
CCCn1cc(-c2ccnc(Nc3cccc(O)c3)n2)c2cccnc21
3.10
CCCn1cc(-c2ccnc(Nc3ccc(C)c(S(=O)(=O)N4CCOCC4)c3)n2)c2ccncc21
3.53
CCCn1cc(-c2ccnc(Nc3cccc(S(N)(=O)=O)c3)n2)c2cccnc21
3.56

* * *

tested system: CDK5/p35 (Homo sapiens)
Construct: purchased Invitrogen PV3000
Sequence (Q00535 whole entry): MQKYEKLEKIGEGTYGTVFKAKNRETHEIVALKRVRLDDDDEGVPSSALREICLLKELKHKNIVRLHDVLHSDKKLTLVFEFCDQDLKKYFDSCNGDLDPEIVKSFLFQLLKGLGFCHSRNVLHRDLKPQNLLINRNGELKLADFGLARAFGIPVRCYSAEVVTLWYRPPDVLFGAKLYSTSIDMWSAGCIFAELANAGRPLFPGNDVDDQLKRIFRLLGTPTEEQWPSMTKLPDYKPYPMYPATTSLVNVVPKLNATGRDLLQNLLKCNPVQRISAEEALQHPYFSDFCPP
Sequence (Q15078 whole entry partner): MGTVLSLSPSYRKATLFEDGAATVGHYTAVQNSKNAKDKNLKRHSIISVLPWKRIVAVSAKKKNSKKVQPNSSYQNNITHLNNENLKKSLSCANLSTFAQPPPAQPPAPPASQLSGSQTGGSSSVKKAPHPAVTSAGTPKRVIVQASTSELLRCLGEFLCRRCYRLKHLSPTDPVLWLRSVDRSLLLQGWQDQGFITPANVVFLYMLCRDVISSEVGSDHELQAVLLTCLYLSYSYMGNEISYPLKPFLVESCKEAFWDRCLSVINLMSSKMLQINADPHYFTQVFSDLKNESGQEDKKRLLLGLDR
protocol: Z'-LYTE kinase assay CDK5/p35
Type: biochemical
test parameters: read-out: Kinase inhibition, IC50 CDK5/p35
Listed here: items and their measured IC50.
measured parameter: IC50 (nM)

CCCn1cc(-c2ccnc(Nc3ccc(C)c(S(=O)(=O)N4CCOCC4)c3)n2)c2ccncc21
25
CCCn1cc(-c2ccnc(Nc3cccc(S(N)(=O)=O)c3)n2)c2ccncc21
0.5
Oc1ccc(Nc2nccc(-c3cn(Cc4ccccc4)c4ccccc34)n2)cc1
4370
CCCn1cc(-c2ccnc(Nc3ccc(O)cc3)n2)c2cccnc21
2240
CCCn1cc(-c2ccnc(Nc3cccc(C(=O)N4CCN(C)CC4)c3)n2)c2cccnc21
620
CCn1cc(-c2ccnc(Nc3cccc(S(N)(=O)=O)c3)n2)c2ccnc(Cl)c21
190
CCCn1cc(-c2ccnc(Nc3ccc(S(N)(=O)=O)cc3)n2)c2cccnc21
100
CCn1cc(-c2ccnc(Nc3ccc(O)cc3)n2)c2cccnc21
5540
CCn1cc(-c2ccnc(Nc3ccc(O)cc3)n2)c2ccccc21
522

* * *

System: H460-luc
protocol: 72 h MTT cytotoxicity assay H460-luc
Format: cell-based
test parameters: Homo sapiens, NCI-H460-Luc; H460-luc, 72 hrs; read-out: Cytotoxicity, MTT 72 hrs, IC50 H460-luc
measured parameter: IC50

Cn1cc(-c2ccnc(Nc3cccc(O)c3)n2)c2ccccc21
6190 nM
CCCn1cc(-c2ccnc(Nc3ccc(S(N)(=O)=O)cc3)n2)c2nc(Cl)cc(C)c21
1030 nM
CCCn1cc(-c2ccnc(Nc3cccc(S(N)(=O)=O)c3)n2)c2nc(Cl)cc(C)c21
2000 nM
CCCn1cc(-c2ccnc(Nc3cccc(S(N)(=O)=O)c3)n2)c2ccnc(Cl)c21
260 nM
CCCn1cc(-c2ccnc(Nc3ccc(O)cc3)n2)c2cccnc21
4980 nM
CCn1cc(-c2ccnc(Nc3cccc(C(N)=O)c3)n2)c2cccnc21
3630 nM
CCn1cc(-c2ccnc(Nc3cccc(S(N)(=O)=O)c3)n2)c2cccnc21
1270 nM
CCCn1cc(-c2ccnc(Nc3cccc(O)c3)n2)c2cccnc21
4060 nM
CCn1cc(-c2ccnc(Nc3cccc(S(N)(=O)=O)c3)n2)c2ccnc(Cl)c21
315 nM
CCCn1cc(-c2ccnc(Nc3ccc(S(N)(=O)=O)cc3)n2)c2ccncc21
20 nM
CCCn1cc(-c2ccnc(Nc3cccc(S(N)(=O)=O)c3)n2)c2cccnc21
1110 nM
CCCn1cc(-c2ccnc(Nc3ccc(C)c(S(=O)(=O)N4CCOCC4)c3)n2)c2ccncc21
220 nM
CCCn1cc(-c2ccnc(Nc3ccc(C)c(S(=O)(=O)N4CCOCC4)c3)n2)c2cccnc21
1410 nM
CCn1cc(-c2ccnc(Nc3cccc(C#N)c3)n2)c2cccnc21
> 10000 nM
CCCn1cc(-c2ccnc(Nc3cccc(S(N)(=O)=O)c3)n2)c2ccncc21
6 nM
Cn1cc(-c2ccnc(Nc3ccc(O)cc3)n2)c2ccccc21
6390 nM
CCCn1cc(-c2ccnc(Nc3cccc([N+](=O)[O-])c3)n2)c2cccnc21
2490 nM

* * *

protocol: Pharmacokinetic determination, rat IV/PO study
Type: in vivo
test parameters: male, Sprague-Dawley, plasma, IV (5 mg/kg)
measured parameter: half-life

CCn1cc(-c2ccnc(Nc3cccc(S(N)(=O)=O)c3)n2)c2cccnc21 [Compound 18]
42 min

* * *

tested system: CDK7 (Homo sapiens)
Sequence (P50613 whole entry, species assumed): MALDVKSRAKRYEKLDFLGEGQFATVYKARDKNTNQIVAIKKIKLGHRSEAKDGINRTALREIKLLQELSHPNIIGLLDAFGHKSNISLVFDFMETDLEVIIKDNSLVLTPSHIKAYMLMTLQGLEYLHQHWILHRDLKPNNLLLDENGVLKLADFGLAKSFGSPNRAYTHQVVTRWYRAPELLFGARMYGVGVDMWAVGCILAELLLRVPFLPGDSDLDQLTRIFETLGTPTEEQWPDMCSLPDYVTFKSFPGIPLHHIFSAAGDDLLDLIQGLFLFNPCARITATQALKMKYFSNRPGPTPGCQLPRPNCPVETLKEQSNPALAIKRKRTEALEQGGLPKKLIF
Sequence (P51946 whole entry partner, species assumed): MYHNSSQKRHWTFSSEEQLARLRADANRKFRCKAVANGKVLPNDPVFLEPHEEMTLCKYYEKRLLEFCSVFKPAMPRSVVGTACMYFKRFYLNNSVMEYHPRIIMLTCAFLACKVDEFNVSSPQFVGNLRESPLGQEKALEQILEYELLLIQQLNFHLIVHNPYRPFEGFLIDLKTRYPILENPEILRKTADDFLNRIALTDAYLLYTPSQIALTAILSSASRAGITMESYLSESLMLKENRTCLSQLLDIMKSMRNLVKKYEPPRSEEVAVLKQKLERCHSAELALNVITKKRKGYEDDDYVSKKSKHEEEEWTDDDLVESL
Sequence (P51948 whole entry partner, species assumed): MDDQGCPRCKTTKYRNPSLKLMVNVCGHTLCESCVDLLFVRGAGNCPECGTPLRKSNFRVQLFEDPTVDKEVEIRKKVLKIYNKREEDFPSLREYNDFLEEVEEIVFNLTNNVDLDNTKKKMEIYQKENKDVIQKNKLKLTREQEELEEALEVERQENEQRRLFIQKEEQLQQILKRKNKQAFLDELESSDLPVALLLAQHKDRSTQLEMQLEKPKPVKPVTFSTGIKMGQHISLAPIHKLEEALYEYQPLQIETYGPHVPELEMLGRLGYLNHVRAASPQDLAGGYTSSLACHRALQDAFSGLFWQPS
protocol: Kinase assay CDK7 (Table III)
test parameters: read-out: Target biochemical activity IC50 CDK7
pIC50: −log10 of the molar value.
measured parameter: pIC50

CCCn1cc(-c2ccnc(Nc3cccc(S(N)(=O)=O)c3)n2)c2nc(Cl)cc(C)c21 [SG53]
< 5.00
CCn1cc(-c2ccnc(Nc3ccc(O)cc3)n2)c2ccnc(Cl)c21 [SG49]
< 5.00
CCn1cc(-c2ccnc(Nc3cccc(S(N)(=O)=O)c3)n2)c2cccnc21 [Compound 18]
6.84
CCCn1cc(-c2ccnc(Nc3ccc(S(N)(=O)=O)cc3)n2)c2nc(Cl)cc(C)c21 [SG54]
< 5.00

* * *

tested system: CDK2/cyclinA (Homo sapiens, UniProt P24941)
Construct: purchased Invitrogen PV3267
protocol: Z'-LYTE kinase assay CDK2/cyclinA
Assay type: biochemical
test parameters: read-out: Kinase inhibition, IC50 CDK2A
pIC50: −log10 of the molar value.
Listed here: items and their measured pIC50.
measured parameter: pIC50

CCn1cc(-c2ccnc(Nc3ccc(O)cc3C)n2)c2ccccc21
6.39
CCCn1cc(-c2ccnc(Nc3ccc(S(N)(=O)=O)cc3)n2)c2nc(Cl)cc(C)c21
5.78
CCn1cc(-c2ccnc(Nc3cccc(C(N)=O)c3)n2)c2cccnc21
6.57
CCn1cc(-c2ccnc(Nc3cccc(O)c3)n2)c2ccccc21
8.70

* * *

Test system: MRC-5
protocol: 72 h MTT cell viability MRC-5 (normal lung)
Type: cell-based
test parameters: Homo sapiens, MRC5; MRC-5, normal lung cell line; read-out: Cell Viability IC50 MRC-5
Listed here: items and their measured IC50.
measured parameter: IC50 (µM)

CCCn1cc(-c2ccnc(Nc3cccc(S(N)(=O)=O)c3)n2)c2cccnc21
5.17
CCn1cc(-c2ccnc(Nc3cccc(S(N)(=O)=O)c3)n2)c2cccnc21
13.3
CCCn1cc(-c2ccnc(Nc3ccc(C)c(S(=O)(=O)N4CCOCC4)c3)n2)c2cccnc21
3.88
CCCn1cc(-c2ccnc(Nc3cccc(S(N)(=O)=O)c3)n2)c2ccnc(Cl)c21
0.89
CCCn1cc(-c2ccnc(Nc3cccc(S(N)(=O)=O)c3)n2)c2nc(Cl)cc(C)c21
14.6
CCn1cc(-c2ccnc(Nc3cccc(C#N)c3)n2)c2cccnc21
15.1
CCCn1cc(-c2ccnc(Nc3cccc(S(N)(=O)=O)c3)n2)c2ccncc21
0.06
